Test system: VEGF-165 (Homo sapiens), P15692-4
Sequence: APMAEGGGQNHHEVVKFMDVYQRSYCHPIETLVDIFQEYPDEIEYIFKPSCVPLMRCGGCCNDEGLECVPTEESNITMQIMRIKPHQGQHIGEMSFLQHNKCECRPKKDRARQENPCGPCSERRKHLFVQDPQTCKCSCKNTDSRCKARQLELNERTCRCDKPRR
measurement_protocol: filter
conditions: Nap-dU; C3 spacer at 15 and 18; VEGF
quantity_kind: Kd (nM)
Give bare numbers, in nM.

Query block: Please give the measured Kd for this sequence: CCGTTCAAGTGCTTTAGATTTAAATGG [4867-31_183]
Result block: 0.138

###

Tested on: VEGF-121 (Homo sapiens), P15692-9
Sequence: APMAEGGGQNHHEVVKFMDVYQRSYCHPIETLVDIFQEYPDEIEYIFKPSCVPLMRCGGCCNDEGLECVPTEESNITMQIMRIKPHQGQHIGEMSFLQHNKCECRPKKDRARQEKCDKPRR
measurement_protocol: filter
conditions: NapdU at P; C3 spacer 15,18; 2'-OMe 1,6,9,12,17,25,28,29
quantity_kind: pKd
Answers are plain numbers, as −log10 of the molar value.

Query block: Which measured pKd belongs to CCGTTCAAGTGCTTTAGATTTAAATGG [4867-31_186] , tested on VEGF-121 (Homo sapiens), P15692-9?
Result block: 8.80

###

test_target: PDGF-BB (platelet-derived growth factor BB) (Homo sapiens) (UniProt P01127)
Sequence (P01127 82-190): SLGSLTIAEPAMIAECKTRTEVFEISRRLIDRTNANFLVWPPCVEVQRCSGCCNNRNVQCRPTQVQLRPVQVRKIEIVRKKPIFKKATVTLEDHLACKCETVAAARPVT
measurement_protocol: filter
conditions: 4149-8_260 3'-3' dimer, 2 Heg, doubler
quantity_kind: Kd (nM)
Answers are plain numbers, in nM.

Query block: Please give the measured Kd for this sequence: TTACGTTACACGCGTTTATAGCGNT [4149-8_341]
Result block: 0.0272

###

Test system: VEGF-121 (Homo sapiens), P15692-9
Sequence: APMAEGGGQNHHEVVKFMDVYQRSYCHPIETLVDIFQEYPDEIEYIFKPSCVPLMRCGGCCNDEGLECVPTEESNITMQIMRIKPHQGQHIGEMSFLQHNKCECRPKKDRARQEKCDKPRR
measurement_protocol: filter
conditions: as 4867-31_192; 2'-OMe 1; PS 25,26
quantity_kind: Kd (nM)
One number for each entry, in nM.

Query block: Please give the measured Kd for this sequence: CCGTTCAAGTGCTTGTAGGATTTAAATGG [4867-31_477]
Result block: 0.024

###

test_target: PDGF-BB (platelet-derived growth factor BB) (Homo sapiens) (UniProt P01127)
measurement_protocol: filter
conditions: NapdU at P; 2'-OMe 7,14,16
quantity_kind: Kd (pM)
Answers are plain numbers, in pM.

Query block: Please give the measured Kd for this sequence: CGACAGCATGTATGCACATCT [5169-4_111]
Result block: 4.8

###

test_target: PDGF-BB (platelet-derived growth factor BB) (Homo sapiens) (UniProt P01127)
measurement_protocol: filter
conditions: Bn-dU; C3 at 3
pKd: −log10 of the molar value.
quantity_kind: pKd

Query block: Please give the measured pKd for this sequence: TTCGACTACGTTACACGCGTTTATAGCG [4149-8_66]
Result block: < 8.00

###

test_target: PDGF-BB (platelet-derived growth factor BB) (Homo sapiens)
measurement_protocol: filter
conditions: NapdU at P; 2'-OMe 1,4,6,7,11,14-18,20,21
quantity_kind: pKd
Answers are plain numbers, as −log10 of the molar value.

Query block: Which measured pKd belongs to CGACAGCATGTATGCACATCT [5169-4_85] , tested on PDGF-BB (platelet-derived growth factor BB) (Homo sapiens)?
Result block: 11.21

###

test_target: PDGF-BB (platelet-derived growth factor BB) (Homo sapiens) (UniProt P01127)
measurement_protocol: filter
conditions: Bn-dU; 2'-OMe Bn-U2; Heg5; 2'-OMe A3, A11, A21, G24
quantity_kind: Kd

Query block: Please give the measured Kd for this sequence: TTACGTTACACGCGTTTATAGCG [4149-8_306]
Result block: > 10 nM

###

test_target: PDGF-BB (platelet-derived growth factor BB) (Homo sapiens)
measurement_protocol: filter
conditions: as 5169-4_146; PS 8; 3' inverted dT
quantity_kind: Kd

Query block: Please give the measured Kd for this sequence: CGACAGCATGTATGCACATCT [5169-4_153]
Result block: 0.013 nM

###

Tested on: VEGF-121 (Homo sapiens), P15692-9
Sequence: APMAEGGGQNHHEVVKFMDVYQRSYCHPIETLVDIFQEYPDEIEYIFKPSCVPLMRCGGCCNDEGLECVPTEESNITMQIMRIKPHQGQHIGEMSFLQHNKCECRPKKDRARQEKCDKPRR
measurement_protocol: filter
conditions: P=Nap-dU; 2'-OMe G17
quantity_kind: pKd
One number for each entry, as −log10 of the molar value.

Query block: Please give the measured pKd for this sequence: AGCCGTTCAAGTGCTTGTAGGATTTAAATGGA [4867-31_81]
Result block: 9.36

###

test_target: PDGF-BB (platelet-derived growth factor BB) (Homo sapiens) (UniProt P01127)
measurement_protocol: filter
conditions: as 5169-4_146; PS 19; 3' inverted dT
quantity_kind: pKd
Answers are plain numbers, as −log10 of the molar value.

Query block: Please give the measured pKd for this sequence: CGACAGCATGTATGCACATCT [5169-4_159]
Result block: 10.82

###

test_target: PDGF-BB (platelet-derived growth factor BB) (Homo sapiens)
measurement_protocol: filter
conditions: PDGF-6Heg-VEGF; NapdU, 2'-OMe
quantity_kind: pKd
Answers are plain numbers, as −log10 of the molar value.

Query block: Please give the measured pKd for this sequence: CGACAGCATGTATGCACATCTCCGTTCAAGTGCTTGTAGGATTTAAATGG [5169-4_99]
Result block: 11.68

###

Tested on: VEGF-121 (Homo sapiens), P15692-9
Sequence: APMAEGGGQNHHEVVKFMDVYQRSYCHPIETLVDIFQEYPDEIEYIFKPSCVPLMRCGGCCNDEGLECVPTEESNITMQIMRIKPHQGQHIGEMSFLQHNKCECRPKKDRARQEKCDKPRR
measurement_protocol: filter
conditions: NapdU at P; 2'-OMe 16
quantity_kind: pKd
Numbers only, as −log10 of the molar value.

Query block: Please give the measured pKd for this sequence: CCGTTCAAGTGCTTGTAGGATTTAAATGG [4867-31_159]
Result block: 9.25

###

Test system: VEGF-165 (Homo sapiens), P15692-4
Sequence: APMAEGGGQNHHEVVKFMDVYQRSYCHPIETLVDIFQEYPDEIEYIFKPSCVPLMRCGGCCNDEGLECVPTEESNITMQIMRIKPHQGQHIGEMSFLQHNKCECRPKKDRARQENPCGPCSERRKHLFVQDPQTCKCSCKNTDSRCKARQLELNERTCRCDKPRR
measurement_protocol: filter
conditions: Nap-dU, Bn-dU, MBn-dU, 2'-OMe, C3; 5 Heg between parts
quantity_kind: pKd
Answers are plain numbers, as −log10 of the molar value.

Query block: Please give the measured pKd for this sequence: CCGTTCAAGTGCTTGTAGGATTTAAATGGTTACGTTACCGCGTTTATAGCG [4149-8_412]
Result block: 10.35

###

test_target: PDGF-BB (platelet-derived growth factor BB) (Homo sapiens)
measurement_protocol: filter
conditions: NapdU at P; 2'-OMe 9
quantity_kind: pKd
Answers are plain numbers, as −log10 of the molar value.

Query block: Please give the measured pKd for this sequence: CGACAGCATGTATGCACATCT [5169-4_49]
Result block: 9.28

###

test_target: PDGF-AB (UniProt P04085+P01127)
Sequence (P01127 82-190, chain 2 of 2, other chains not shown): as the sequence (P01127 82-190) above
measurement_protocol: filter
conditions: VEGF-PDGF heterodimer, no Heg linker; NapdU, BndU
quantity_kind: pKd
Numbers only, as −log10 of the molar value.

Query block: Which measured pKd belongs to CCGTTCAAGTGCTTTAGATTTAAATGGTTACGTTACACGCGTTTATAGC [4149-8_313] , tested on PDGF-AB (UniProt P04085+P01127)?
Result block: 9.78

###

Tested on: VEGF-165 (Homo sapiens), P15692-4
Sequence: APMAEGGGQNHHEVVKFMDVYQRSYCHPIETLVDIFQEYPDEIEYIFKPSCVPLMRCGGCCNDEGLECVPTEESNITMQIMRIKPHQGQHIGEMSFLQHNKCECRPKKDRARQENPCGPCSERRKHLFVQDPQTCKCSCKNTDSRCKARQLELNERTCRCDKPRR
measurement_protocol: filter
conditions: NapdU at 4,5,10,13,14,16,21,23,27; 2'-OMe at C6,G9,C12,G15,A17,G18,G28,G29 and 2'-OMe-NapU22; 3'-inverted dT in Tables 26-27; 5'-OH form
quantity_kind: Kd

Query block: Which measured Kd belongs to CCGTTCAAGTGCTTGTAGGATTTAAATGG [4867-31_192] , tested on VEGF-165 (Homo sapiens), P15692-4?
Result block: 0.041 nM

src = patent US20160177307
